meta.source: the array DNA melting data of Ke et al. (doi:10.1101/2024.01.08.574731)

# folding enthalpy per record follows
- procedureSummary: folding enthalpy; higher = less favourable; fluorescence melt of hairpins on a sequencing array, two-state fit
- conditionContext: sodium 0.088 M
Dear colleague, please return just the value in kcal/mol, with no unit written.

Here is how some sequences turned out for folding enthalpy.
residuecodes="GCTGAGCGAAAGCCCAGC ((((.((....)).))))" measurename="folding enthalpy" unitlabel=kcal/mol observedvalue=-47.6
residuecodes="GAGAACGGAAACGCTCTC ((((.((....)).))))" measurename="folding enthalpy" unitlabel=kcal/mol observedvalue=-28.6
residuecodes="GTAACACGAAAGTGGTAC (((.(((....))).)))" measurename="folding enthalpy" unitlabel=kcal/mol observedvalue=-41.3
residuecodes="GTGCGCGAAAGCGGTCAC ((((((....)))..)))" measurename="folding enthalpy" unitlabel=kcal/mol observedvalue=-14.1

Respond only with folding enthalpy recorded for GAAGTGGGAAACTGCTTC ((((..(....)..)))) -26.1

Tell me its folding enthalpy given GATCGTGCAGACGATC ((((((....)))))) as the entry. -40.9

Indicate its recorded folding enthalpy; the sequence in question is GCTATCGAAAGATGTAGC ((((((....)))..))) -28.9

Determine from records and report folding enthalpy for GATGACGAAAGTCGATC ((((((....))).))) -18.8

For the sequence GCGAAGGCGAAAGCCCGC (((..(((....)))))) , give its reported folding enthalpy. -18.2

Give a short answer stating reported folding enthalpy for GAAGGCGAAAGCCCTTTC ((((((....)))..))) . -10

Please supply the value of reported folding enthalpy for the item GTGTACCGAAAGGTTCAC (((.(((....))).))) -35.8

Kindly indicate its recorded folding enthalpy. Item: CGCCCGGAAACGGCGCG ((((((....))).))) -26.8

====

- procedureSummary: melting temperature; fluorescence melt of hairpins on a sequencing array, two-state fit, raised by 9.35 °C to match UV melts
- conditionContext: sodium 0.088 M
measureName: Tm (°C)
A number alone suffices; assume °C.

Please review the following examples before continuing.
residuecodes="GCAGGTGGAAACATCTGC ((((.((....)).))))" observedvalue=52.9
residuecodes="GCCAACGAAAGTTGCGGC ((((((....)))..)))" observedvalue=51.5
residuecodes="GCTCACGAAAGTGGAAGC ((((((....)))..)))" observedvalue=45.4
residuecodes="GGAAGCGGAAACGCTCCC ((.((((....)))).))" observedvalue=52.4
residuecodes="GCCTTGCCGAAAGGCGGC (((..(((....))))))" observedvalue=67.5

Please list Tm recorded for the sequence GTTCGCGGAAACGTGAGC (.((.((....)).)).) 41.3

Supply measured Tm of GGTGGGCGAAAGCCTACC (((.(((....))).))) in your reply. 65.6

State its Tm: GCTTTTACGAAAGTAAGC (((..(((....)))))) 33.2

Given the sequence GGAGGGGGAAACCCCTCC (((((((....))))))) , write its reported Tm. 69.3

Input AGGAGGAAACTCCT (((((....))))) , output reported Tm. 45

Output measured Tm for this item: GGGTAAGGAAACTTATCC ((.((((....)))).)) 40.1

Find the measured Tm of GTGATCTCGAAAGAGCAC (((..(((....)))))) and report it. 45.5
